- Assay system: alpha-synuclein (natural human wildtype alpha-synuclein) (human, UniProt P37840 1-140)
- Procedure summary: BLI, ForteBio Octet QK; apparent ka
Quantity kind: kon (M⁻¹ s⁻¹)
Express it in M⁻¹ s⁻¹; write the number only.

Quick note, kon for Humanized 1H7 H5L3 (Hu1H7VHv5-Hu1H7VLv3) (antibody, V domains shown) VH: QVQLVQSGAEVKKPGASVKVSCKASGYTFTSYYIHWVRQAPGQGLEWMGWIYPGSGNTKYSEKFKGRATMTADTSTSTAYMELRSLRSDDTAVYYCARDGSYGFAYWGQGTLVTVSS VL: DIQLTQSPSSLSASVGDRVTITCKASQSVDYDGDSYMNWYQQKPGKAPKFLICAASNLESGVPSRFSGSGSGTDFTLTISSLQPEDFATYYCQQSNEDPFTFGQGTKLEIK landed at 760000

Record Humanized 1H7 H1L2 (Hu1H7VHv1-Hu1H7VLv2) (antibody, V domains shown) VH: QVQLVQSGAELKKPGASVKVSCKASGYSFTSYYIHWVKQAPGQGLEWIGWIYPGSGNTKYSEKFKGRATLTADTSTSTAYMELRSLRSDDTAVYFCARDGCYGFAYWGQGTLVTVSS VL: DIQLTQSPSSLSASVGDRVTITCKASQSVDYDGDSYMNWYQQKPGKAPKFLIYAASNLESGVPSRFSGSGSGTDFTLTISSLQPEDAATYYCQQSNEDPFTFGQGTKLEIK , field kon: 1.6e+06
